experimentSummary: TNF-a-driven NF-kB reporter inhibitors, primary screen, selectivity assay for NOD1/NOD2 signaling inhibitor project, cell-based, HEK293T NF-kB-Luc, luminescence (AID 1852)
testContext: TNF-a induced, 14 h, at 4 µM, hits give high values
In all, about 2,500 compounds went through this assay and about 1,100 (44%) were called active. The set was probably picked from earlier hits. Some of the results follow.
observable: inhibition (%)
Hi! Could you send only the number? It should be in %, unit omitted.

Ask: Query: inhibition; subject: CCC(Cc1ccccc1)NS(=O)(=O)c1ccc2c(c1)NC(=O)C(C)S2 (stereo unspecified)
Reply: -1.2

Ask: And then CCC1Sc2ccc(S(=O)(=O)Nc3ccc(OC)c(OC)c3)cc2NC1=O (stereo unspecified) , what is it?
Reply: 51.8

Ask: And then CCCCc1cc(=O)oc2cc(O)cc(O)c12 , what is it?
Reply: 21.4

Ask: And then Cc1c(Cc2ccccc2)c(=O)oc2cc(O)cc(O)c12 , what is it?
Reply: -8.9

Ask: And then Cc1ccc(C(=O)N2CCN(c3ccc(NC(=O)c4ccc5c(c4)OCCO5)cc3)CC2)cc1 , what is it?
Reply: 84.2

Ask: And then COc1cc(OC)cc(-c2nnc(NC(=O)c3ccc4c(c3)OCCO4)o2)c1 , what is it?
Reply: 105

Ask: And then CCCN(CCC)S(=O)(=O)c1ccc(C(=O)Nc2nnc(-c3cc(OC)cc(OC)c3)o2)cc1 , what is it?
Reply: 68.9

Ask: And then N=c1c2c(n(Cc3ccc(Cl)cc3)c3c1CCC3)CCC2 , what is it?
Reply: 12.4

Ask: And then O=C(Oc1c(-c2ccccc2)c(=O)n2c3c(cccc13)CC2)c1ccccc1 , what is it?
Reply: 75.1

Ask: And then COc1ccc(COC(=O)NC2CCN(S(=O)(=O)c3ccc(OC)cc3)CC2)cc1 , what is it?
Reply: 20.6

Ask: And then O=C(Oc1c(-c2ccccc2)c(=O)n2c3c(cccc13)CC2)c1ccc(Cl)cc1 , what is it?
Reply: 90.1

Ask: And then O=C(Nc1nnc(-c2ccco2)o1)c1ccc2ccccc2c1 , what is it?
Reply: 77.9

Ask: And then CC1Cc2cc(-c3csc(NC(=O)Cc4cccs4)n3)ccc2N1S(C)(=O)=O (stereo unspecified) , what is it?
Reply: 60.6

Ask: And then CC(C)C(=O)N1CCN(c2ccc(NC(=O)c3ccc4c(c3)OCCO4)cc2Cl)CC1 , what is it?
Reply: 80.5

Ask: And then COc1ccc(-c2nnc(NC(=O)c3ccc([N+](=O)[O-])o3)o2)c(OC)c1 , what is it?
Reply: 49.5

Ask: And then O=C(NCC1CCN(Cc2ccc(Cl)cc2)CC1)C1CCCN(c2ncnc3c2nc2n3CCCCC2)C1 (stereo unspecified) , what is it?
Reply: 57.9

Ask: And then O=C(Oc1c(-c2ccccc2)c(=O)n2c3c(cccc13)CC2)c1ccc(F)cc1 , what is it?
Reply: 49.3

Ask: And then CCCC1/C(=N/O)CC(c2ccccc2)NC1c1ccccc1 (stereo unspecified) , what is it?
Reply: 31.6

Ask: And then O=C(Nc1ccc(Cl)cn1)C1CCN(c2ncnc3c2nc2n3CCCCC2)CC1 , what is it?
Reply: 76.4

Ask: And then CCCc1nc(SCC(=O)N2CCC(Cc3ccccc3)CC2)c2c(=O)n(C)c(=O)n(C)c2n1 , what is it?
Reply: -11.3

Ask: And then O=C(Nc1ccc2nn(-c3ccccc3)nc2c1)c1ccc2c(c1)OCCO2 , what is it?
Reply: 31.9

----------
Would you mind telling me the reported inhibition of each entry?
experimentSummary: TNF-a-driven NF-kB reporter inhibitors, primary screen, selectivity assay for NOD1/NOD2 signaling inhibitor project, cell-based, HEK293T NF-kB-Luc, luminescence (AID 1852)
testContext: TNF-a induced, 14 h, at 4 µM, hits give high values
Screen size: about 2,500 compounds; about 1,100 (44%) were called active. So high a share suggests a set chosen from earlier hits. The list shows a part of the results.
Hi! Could you send only the number? It should be in %, unit omitted.

Ask: Query: inhibition; subject: CC(=O)Nc1ccccc1OCC(=O)c1cc(C)n(Cc2cccs2)c1C
Reply: 28.3

Ask: And then O=C1NC(=O)/C(=C\c2ccccc2Oc2ccc(F)c(F)c2)S1 , what is it?
Reply: 55.7

Ask: And then O=c1oc2ccccc2c(Nc2ccc(F)cc2)c1[N+](=O)[O-] , what is it?
Reply: -32.2

Ask: And then Cc1c(C#N)c(NC(=O)CCl)n(Cc2ccccc2)c1C , what is it?
Reply: 95.9

Ask: And then CC1CC(C)CN(C(=O)CSc2nc(Cc3cccs3)nc3ccccc23)C1 (stereo unspecified) , what is it?
Reply: -34.3

Ask: And then O=C(CCl)Nc1c2c(nn1-c1ccccc1)CSC2 , what is it?
Reply: -6.5

Ask: And then CC(=O)Nc1ccc(SCC(=O)c2cc(C)n(Cc3cccs3)c2C)cc1 , what is it?
Reply: -119

Ask: And then Cc1cc(SCC(=O)OC/C(O)=C(\C#N)c2nc3ccccc3[nH]2)c(C)cc1Br , what is it?
Reply: 59.5

Ask: And then c1csc(C2=Nn3c(nnc3-c3ccncc3)SC2)c1 , what is it?
Reply: 90.9

Ask: And then COC(=O)c1ccc(Nc2c([N+](=O)[O-])c(=O)oc3ccccc23)cc1 , what is it?
Reply: 99.5

Ask: And then O=C(CCl)Nc1ccccc1C(=O)NCc1ccccc1 , what is it?
Reply: -4

----------
experimentSummary: TNF-a-driven NF-kB reporter inhibitors, primary screen, selectivity assay for NOD1/NOD2 signaling inhibitor project, cell-based, HEK293T NF-kB-Luc, luminescence (AID 1852)
testContext: TNF-a induced, 14 h, at 4 µM, hits give high values
Among all 2,500 compounds or so, about 1,100 (44%) were called active. The set was probably picked from earlier hits. The list shows a part of the results.
inhibition vs 40%: at or above is TRUE, below is FALSE.

Ask: Decide: is the reported value of inhibition for O=C(O)CCC(=O)Nc1cccc(-c2csc(-c3ccccc3)n2)c1 equal to or greater than 40%?
Reply: TRUE

Ask: And then COc1ccc(Br)cc1/C=C/C(=O)c1ccc(NC(C)=O)cc1 , what is it?
Reply: TRUE

Ask: And then COc1ccc(-c2cc(C(F)(F)F)nc(S(=O)(=O)CCCC(=O)Nc3cccc(O)c3)n2)cc1OC , what is it?
Reply: TRUE

Ask: And then CC(=O)Nc1ccc(N/C=C/C(=O)c2ccc(C)cc2)cc1 , what is it?
Reply: FALSE

Ask: And then COc1ccc(-c2cc(C(F)(F)F)nc(S(=O)(=O)CCCC(=O)Nc3cccnc3Cl)n2)cc1OC , what is it?
Reply: TRUE

Ask: And then COc1ccccc1-c1cc(C(F)(F)F)nc(S(=O)(=O)CCCC(=O)Nc2cccnc2Cl)n1 , what is it?
Reply: FALSE

Ask: And then Cc1ccccc1S(=O)(=O)Cc1ccc(C(=O)N2CCN(c3cccc(C)c3C)CC2)o1 , what is it?
Reply: FALSE

Ask: And then CCC(=O)N1c2ccc(S(=O)(=O)N3CCN(c4ccc([N+](=O)[O-])cc4)CC3)cc2CC1C (centres undefined) , what is it?
Reply: FALSE

Ask: And then Cc1cc(C=O)c(C)n1-c1ccc(N2CCCCC2)c([N+](=O)[O-])c1 , what is it?
Reply: TRUE

----------
experimentSummary: TNF-a-driven NF-kB reporter inhibitors, primary screen, selectivity assay for NOD1/NOD2 signaling inhibitor project, cell-based, HEK293T NF-kB-Luc, luminescence (AID 1852)
testContext: TNF-a induced, 14 h, at 4 µM, hits give high values
Screen size: about 2,500 compounds; about 1,100 (44%) were called active. So high a share suggests a set chosen from earlier hits. The list shows a part of the results.
inhibition vs 40%: at or above is true, below is false.

Ask: Decide: is the reported value of inhibition for CCC(C)Cn1c(C)nc2ccccc21 (stereo not drawn) equal to or greater than 40%?
Reply: false

Ask: And then CCCCCCc1cc2cc(-c3nnc(-c4ccccc4O)o3)c(=O)oc2cc1O , what is it?
Reply: false

Ask: And then CC(=O)c1ccc(NC(=O)c2noc3c2CCC3)cc1 , what is it?
Reply: false

Ask: And then COc1ccc(Nc2nc(N)nc(CCl)n2)cc1 , what is it?
Reply: false

Ask: And then COc1ccccc1Nc1nc(N)nc(CCl)n1 , what is it?
Reply: false

Ask: And then CC(=O)Nc1ccc2nc(NC(=O)c3ccc([N+](=O)[O-])o3)sc2c1 , what is it?
Reply: false

Ask: And then CCCCCCc1cc2cc(-c3nnc(-c4cc(OC)c(OC)c(OC)c4)o3)c(=O)oc2cc1O , what is it?
Reply: true

Ask: And then c1csc(Cc2nn3c(-c4ccncc4)nnc3s2)c1 , what is it?
Reply: true

Ask: And then COc1ccc(-c2n[nH]c(C)c2-c2ccc(OC)c(OC)c2)c(O)c1 , what is it?
Reply: false

Ask: And then COc1cc(/C=N/Nc2nc3c(c(=O)n(C)c(=O)n3C)n2Cc2ccccc2)ccc1OC(=O)c1ccco1 , what is it?
Reply: true

Ask: And then c1ccc(CCc2nn3c(-c4ccncc4)nnc3s2)cc1 , what is it?
Reply: true

Ask: And then COc1ccc(-c2cncnc2-c2ccc(OC)cc2O)cc1 , what is it?
Reply: true

Ask: And then CCOc1ccc(Nc2nc(N)nc(CCl)n2)cc1 , what is it?
Reply: true

Ask: And then COCCN(Cc1ccccc1)C(=O)c1cc(-c2ccc(OC)c(OC)c2)nc2ccccc12 , what is it?
Reply: false

Ask: And then Cc1ccccc1NC(=O)C1CCN(c2cc(-c3ccccc3)nc3ncnn23)CC1 , what is it?
Reply: true

Ask: And then COc1ccc(-c2cnc(N)nc2-c2ccc(OC)cc2O)cc1 , what is it?
Reply: true

Ask: And then COc1ccc(-c2cc(C(F)(F)F)nc(S(C)(=O)=O)n2)cc1OC , what is it?
Reply: true

Ask: And then c1cc(-c2nnc3sc(C4CCCCC4)nn23)ccn1 , what is it?
Reply: true

Ask: And then CC(=O)c1ccc(N2CCN(C(=S)Nc3ccc(Oc4ccccc4)cc3)CC2)cc1 , what is it?
Reply: true

Ask: And then Cc1cc(NC(=O)CCS(=O)(=O)c2nc(-c3ccccc3)cc(C(F)(F)F)n2)no1 , what is it?
Reply: true

Ask: And then Cc1ccc(Nc2nc(N)nc(CCl)n2)c(C)c1 , what is it?
Reply: false

Ask: And then COc1cccc(Cn2c(NCc3cccnc3)nc3c2c(=O)n(C)c(=O)n3C)c1 , what is it?
Reply: false

Ask: And then O=C(N/N=C/c1ccc([N+](=O)[O-])o1)c1ccc2c(c1)OCO2 , what is it?
Reply: true
